experiment: Retardation factor, Rf of the compound in 1:1 2-propanol-0.25 M triethylammonium bicarbonate by paper chromatographic analysis; type: physicochemical
QUANTITY MEASURED: Rf

| COMPOUND | Rf |
| --- | --- |
| CCOC(=O)NCC(C[C@H]1O[C@@H](n2cnc3c(N)ncnc32)[C@H](O)[C@@H]1O)P(=O)(O)O (some centres not stated) | 0.78 |
| CC(=O)NCC(C[C@H]1O[C@@H](n2cnc3c(N)ncnc32)[C@H](O)[C@@H]1O)P(=O)(O)O (some centres not stated) | 0.73 |
| CCCOC(=O)NCC(C[C@H]1O[C@@H](n2cnc3c(N)ncnc32)[C@H](O)[C@@H]1O)P(=O)(O)O (some centres not stated) | 0.81 |
| CCC(=O)NCC(C[C@H]1O[C@@H](n2cnc3c(N)ncnc32)[C@H](O)[C@@H]1O)P(=O)(O)O (some centres not stated) | 0.83 |
| N#CC(C[C@H]1O[C@@H](n2cnc3c(N)ncnc32)[C@H](O)[C@@H]1O)P(=O)(O)O (some centres not stated) | 0.71 |

(A) COC(=O)NCC(C[C@H]1O[C@@H](n2cnc3c(N)ncnc32)[C@H](O)[C@@H]1O)P(=O)(O)O (some centres not stated)
(B) NCC(C[C@H]1O[C@@H](n2cnc3c(N)ncnc32)[C@H](O)[C@@H]1O)P(=O)(O)O (some centres not stated)
Request: Which of these two has the smaller recorded Rf: A or B ? Answer format: the label of the selected item.
Result: B
(B: 0.49, A: 0.75)
